# Test system: OGA (Homo sapiens)
# Construct: HEK293 cells inducible for P301L mutant human Tau (isoform 2N4R) were established at Janssen; endogenous in cells
# Sequence (O60502 1-916): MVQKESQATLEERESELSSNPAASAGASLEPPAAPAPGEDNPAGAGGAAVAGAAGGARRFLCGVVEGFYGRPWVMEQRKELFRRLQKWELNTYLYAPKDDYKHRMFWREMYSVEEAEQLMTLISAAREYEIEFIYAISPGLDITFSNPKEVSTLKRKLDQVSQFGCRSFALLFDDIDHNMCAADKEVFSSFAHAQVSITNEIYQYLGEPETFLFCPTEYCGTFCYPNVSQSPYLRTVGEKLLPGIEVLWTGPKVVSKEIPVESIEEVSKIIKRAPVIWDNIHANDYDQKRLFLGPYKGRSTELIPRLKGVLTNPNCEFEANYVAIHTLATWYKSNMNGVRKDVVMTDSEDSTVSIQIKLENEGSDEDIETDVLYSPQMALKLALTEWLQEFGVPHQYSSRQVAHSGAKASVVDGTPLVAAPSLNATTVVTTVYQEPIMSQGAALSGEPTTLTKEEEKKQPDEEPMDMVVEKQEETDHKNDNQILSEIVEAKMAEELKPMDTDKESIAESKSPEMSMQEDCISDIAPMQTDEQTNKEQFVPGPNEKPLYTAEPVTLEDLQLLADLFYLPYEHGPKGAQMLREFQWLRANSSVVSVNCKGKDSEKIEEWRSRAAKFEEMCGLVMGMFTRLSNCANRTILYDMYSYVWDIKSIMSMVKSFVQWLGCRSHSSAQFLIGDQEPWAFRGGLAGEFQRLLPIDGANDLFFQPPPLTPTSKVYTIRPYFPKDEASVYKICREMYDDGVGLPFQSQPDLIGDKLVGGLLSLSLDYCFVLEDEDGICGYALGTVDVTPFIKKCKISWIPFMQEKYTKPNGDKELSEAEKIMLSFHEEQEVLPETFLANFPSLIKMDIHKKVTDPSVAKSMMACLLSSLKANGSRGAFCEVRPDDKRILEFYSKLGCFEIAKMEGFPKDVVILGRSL
# Assay procedure: OGA cellular assay: immunocytochemical detection of O-GlcNAcylated proteins in HEK293 cells inducible for P301L mutant human Tau
# Excerpt: HEK293 cells inducible for P301L mutant human Tau (isoform 2N4R) were established at Janssen. Thiamet-G was used for both plate validation (high control) and as reference compound (reference EC50 assay validation). […] Inhibition of OGA will result in an increase of O-GlcNAcylated protein levels resulting in an increased signal in the experiment. […] ICC pictures are imaged with a Perkin Elmer Opera Phenix plate microscope and quantified with the provided software Perkin Elmer Harmony 4.1. […]
Value type: EC50

Recall the recorded EC50 for c1cc(CC2CCN(Cc3ccc4nccnc4c3)C2)n2ccnc2c1 (stereo not drawn) with OGA (Homo sapiens) and state it.
> 10 µM

What do you have for CC(=O)Nc1ncc(S(=O)(=O)N2CCOC(c3cc(C)nc4ncnn34)C2)s1 (racemic) ?
> 10 µM

What do you have for CC(=O)Nc1ncc(S(=O)(=O)N2CCO[C@H](c3ccnc4ncnn34)C2)s1 ?
> 10 µM

Values were extracted from patent US20200157092A1.
